Values were extracted from ChEMBL document CHEMBL1275573.

Reported Selectivity Index values for the following compounds.
experiment: Selectivity index, ratio of EC50 for Murine cytomegalovirus Smith to CC50 for human HFF cell

Smiles Data | Parameter Measured | Reported Value
CCCCCCCCCCCCCCCCOCCCOP(=O)(O)COCCn1ccc(N)nc1=O | Selectivity Index | <150
Nc1ccn(CCOCP(=O)(O)O)c(=O)n1 | Selectivity Index | >480
CCCCCCCCCCCCCCCCOCCCOP(=O)(O)COCCn1cnc2c(N)nc(N)nc21 | Selectivity Index | 240
Nc1nc(N)c2ncn(CCOCP(=O)(O)O)c2n1 | Selectivity Index | >500
CCCCCCCCCCCCCCCCOCCCOP(=O)(O)COCCn1cnc2c(NC3CC3)nc(N)nc21 | Selectivity Index | >3700

Consider now this further compound.
**Q:** Which Selectivity Index is reported for this compound? CCCCCCCCCCCCCCCCOCCCOP(=O)(O)COCCn1cc(F)c(N)nc1=O
**A:** 440

----------
tested on: Human alphaherpesvirus 3; assay: Antiviral activity against Varicella zoster virus Ellen infected in HFF cells by plaque reduction assay; format: functional, organism-based; details: Human alphaherpesvirus 3, Ellen
Parameter Measured: pEC50
Field pEC50 (float): negative decimal logarithm of the concentration in molar.

Reference set, count: 2
Smiles Data | pEC50
Nc1nc(NC2CC2)c2ncn(CCOCP(=O)(O)O)c2n1 | 6.10
CCCCCCCCCCCCCCCCOCCCOP(=O)(O)COCCn1cnc2c(NC3CC3)nc(N)nc21 | 7.52

**Q:** Lab request: please report pEC50 under test system Human alphaherpesvirus 3 for CCCCCCCCCCCCCCCCOCCCOP(=O)(O)COCCn1cc(Br)c(N)nc1=O
**A:** 4.38

----------
system: Human alphaherpesvirus 2; assay: Antiviral activity against herpes simplex virus 2 MS infected in HFF cells by plaque reduction assay; type: functional, organism-based; conditions: Human alphaherpesvirus 2, MS
pEC50: −log10 of the molar value.
Parameter Measured: pEC50

Reference set, count: 3
Smiles Data | Parameter Measured | Reported Value
CCCCCCCCCCCCCCCCOCCCOP(=O)(O)COCCn1cc(F)c(N)nc1=O | pEC50 | < 4.92
Nc1nc(=O)n(CCOCP(=O)(O)O)cc1Br | pEC50 | < 4.22
Nc1ccn(CCOCP(=O)(O)O)c(=O)n1 | pEC50 | < 3.52

Consider now this further compound.
**Q:** Lab request: please report pEC50 under test system Human alphaherpesvirus 2 for Nc1nc(N)c2ncn(CCOCP(=O)(O)O)c2n1
**A:** < 5.00

----------
assay: Antiviral activity against Human herpesvirus 6A GS infected in human HSB-2 cells; type: functional, cell-based; conditions: Human betaherpesvirus 6A, HSB2
Reported EC50 values for the following compounds.

Reference set, count: 2
Smiles Data | EC50
CCCCCCCCCCCCCCCCOCCCOP(=O)(O)COCCn1ccc(N)nc1=O | > 50 µM
Nc1nc(=O)n(CCOCP(=O)(O)O)cc1Br | > 50 µM

Consider now this further compound.
**Q:** Which EC50 is reported for this compound? Nc1nc(=O)n(CCOCP(=O)(O)O)cc1F
**A:** > 50 µM
